Consider the following compounds; for each one, report its pIC50.
# Tested on: mouse spleen cells
# protocol.description: Proliferation inhibition assay for mouse spleen cells
# Format: cell-based
# condition.details: 72 h, LPS 100 μg/mL, 3 days, Alamar Blue, read-out: Inhibition of LPS response
pIC50: −log10 of the molar value.

Inquiry: Any idea what pIC50 was measured for OCc1nc2ccccc2n1-c1nc(N2CCOCC2)nc(N2CCOCC2)n1 [Compound 3] ?
Reply text: 5.00 to 7.00

Hi! Can you tell me pIC50 for each of these compounds?
1. CCOc1ccc2nc(C(F)F)n(-c3nc(N4CCOCC4)nc(N4CCOCC4)n3)c2c1 [Compound 9]
2. CC1CN(c2cc(N3CC(C)OC(C)C3)nc(-n3c(C(F)F)nc4cc(N)ccc43)n2)CC(C)O1 (centres unmarked) [Compound 17]
3. Oc1ccc2c(c1)nc(C(F)F)n2-c1nc(N2CCOCC2)nc(N2CCOCC2)n1 [Compound 12]
4. FC(F)c1nc2ccccc2n1-c1nc(N2CCOCC2)nc(N2CCOCC2)n1 [Compound 4]
5. C[C@@H]1OCCN(c2nc(N3CCOCC3)nc(-n3cnc4ccccc43)n2)[C@H]1C (relative stereo) [Compound 2]
6. CC(=O)N1CCN(c2nc(N3CCOCC3)nc(-n3c(C(F)F)nc4ccccc43)n2)CC1 [Compound 28]
7. OCC1CCCN1c1nc(N2CCOCC2)nc(-n2c(C(F)F)nc3c(O)cccc32)n1 (centres unmarked) [Compound 20]

Reply text:
["7.00 to 9.00", "4.00 to 5.00", "7.00 to 9.00", "7.00 to 9.00", "5.00 to 7.00", "7.00 to 9.00", "≥ 9.00"]

These data points were gathered from patent US8338414B2.
